Biological target: β-Amyloid (Aβ1-42) fibrils (Homo sapiens)
Construct: β-Amyloid peptide (Aβ1-42, Bachem, 1 mg)
Sequence (P05067 672-713 limits assumed): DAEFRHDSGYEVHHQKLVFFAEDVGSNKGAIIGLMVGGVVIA
Assay: Test of inhibitory binding ability against [125I]TZDM on β-amyloid fibrils
Settings: Aβ1-42 fibrils 10 nM, [125I]TZDM 0.05 nM, room temperature 3 hours; read-out: Ki, binding affinity (Ki) for [125I]TZDM (48)
# note: boundary value 0.4 nM maps to 0 (no); Ki below it maps to 1 (yes)

compound	assigned.class
CNc1ccc(-c2cc3ccc(OCC(O)CF)cc3s2)cc1 (racemic)	0 (no)

Take the compound `CNc1ccc(-c2nc3ccc(OC[C@H](O)CF)cc3s2)cn1` and say whether its Ki is less than 0.4 nM.
1 (yes)

Take the compound CNc1ccc(-c2nc3ccc(OCC(O)CF)cc3s2)cc1 (racemic) and say whether its Ki is less than 0.4 nM.
0 (no)

Take the compound CNc1ccc(-c2cc3ccc(OCC(O)CF)cc3s2)cn1 (racemic) and say whether its Ki is less than 0.4 nM.
0 (no)

Take the compound CNc1ccc(-c2cc3ccc(OCC(O)CF)cc3s2)nn1 (racemic) and say whether its Ki is less than 0.4 nM.
0 (no)

Reference source: patent US9133143B2
